Listed here are binders together with their documented IC80 (neutralization).
# testSystem: T1, LASV Josiah (lineage IV) glycoprotein, full-length GP (Lassa virus, Josiah strain, UniProt P08669 2-491)
# T1 sequence: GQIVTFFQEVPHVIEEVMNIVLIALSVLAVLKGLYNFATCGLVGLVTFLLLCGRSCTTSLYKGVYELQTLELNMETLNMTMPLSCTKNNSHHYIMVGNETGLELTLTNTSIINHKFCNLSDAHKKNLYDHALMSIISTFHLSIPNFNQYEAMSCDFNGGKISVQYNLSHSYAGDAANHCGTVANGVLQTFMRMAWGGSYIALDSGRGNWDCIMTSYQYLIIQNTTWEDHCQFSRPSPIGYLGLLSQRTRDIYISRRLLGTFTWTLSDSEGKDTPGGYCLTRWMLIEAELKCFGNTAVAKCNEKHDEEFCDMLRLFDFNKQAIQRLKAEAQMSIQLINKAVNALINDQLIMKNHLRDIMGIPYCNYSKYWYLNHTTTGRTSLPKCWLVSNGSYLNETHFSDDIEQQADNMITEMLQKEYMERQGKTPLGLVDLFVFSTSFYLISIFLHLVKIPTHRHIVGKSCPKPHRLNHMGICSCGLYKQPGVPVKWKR
# testProtocol: cell-based or functional assay
attributeMeasured: IC80 (neutralization) (µg/mL)

1) 37.2D (antibody, V domains shown) VH: EVQLVQSGAEVKKPGASVKVSCKASGYTFTKYGISWVRQAPGQGLEWMGWISAFNGYTRYGQRFQGKVTMTTDTSTNTASLEVRTLTSNDTAVYYCARQYPDQYSSSGWPRLFAMDVWGQGTTVIVSP VL: ETTLTQSPATLSVSPGETATLSCRASQNVINNLAWYQQKPGQAPRLLIYGASTRATGIPARFSGSGSGTEFTLTISSMQSEDFAVYYCQQYNDWPRSFGQGTRLDIRR ... 0.26
2) 37.7H (antibody, V domains shown) VH: EVQLVQSGGGLVKAGGSLRLSCAASGFTFSTYSMNWIRQAPGKGLEWVASISSRSGSHINYVDSVKGRFTISRDNARDLLYLQMNSLRVDDSALYYCARDRRSGTSPLPLDVWGQGTTVTVFS VL: DQSALTQPASVSGSPGQSITISCTGTGSDIGGYNFVSWYQQYPGKAPKLIIYEVRIRASGVSNRFSGSKSGNTASLTISGLQAEDEADYYCNSYSIHSPWVFGGGTKLTVLR ... 0.214
3) 25.6A (antibody, V domains shown) VH: QVQLQESGGGLVKAGGSLRLSCAASGFMFERYSLHWVRQTPGKGLEWVSSISSLSGSHINYADSVKGRFTISRDNAKNSLSLQMNSLRVEDTAIYYCARDRRSGSSPVPLDVWGQGTTVTVSS VL: DLPVLTQPASVSGSPGQSITISCTGTSSDVGAYNYVSWYQQHPGKAPKLIIYEVKIRPSGVSNRFSGSKSGNTASLTISGLQAEDEADYFCSSYSTNSPWVFGGGTKVTVLR ... 0.3
4) 36.9F (antibody, V domains shown) VH: EVQLVQSGGGLVKAGGSLKLSCGASGFTFSSYSMSWVRQAPGKGLEWVSYISSGGSSIHYADSVKGRFTISRDNAKNSLYLQMKNLRVDDTGRYYCVRDPRSGISGRYGMDVWGQGTTVTVSS VL: DIVMTQSPDSLAVSLGERATINCKSSQTVLFTSYYVAWYQQKPGQPPKLLFSGASSRESGVPDRFSAGGSGTDFYLTINSLQAEDVADYYCQQYHTPPFTFGGGTKLEIRR ... 2.23
